Molecular target: rat mGlu2 (Rattus norvegicus, UniProt P31421)
Construct: expressed in transfected cells; host or cells: HEK-293
Sequence (P31421 19-872): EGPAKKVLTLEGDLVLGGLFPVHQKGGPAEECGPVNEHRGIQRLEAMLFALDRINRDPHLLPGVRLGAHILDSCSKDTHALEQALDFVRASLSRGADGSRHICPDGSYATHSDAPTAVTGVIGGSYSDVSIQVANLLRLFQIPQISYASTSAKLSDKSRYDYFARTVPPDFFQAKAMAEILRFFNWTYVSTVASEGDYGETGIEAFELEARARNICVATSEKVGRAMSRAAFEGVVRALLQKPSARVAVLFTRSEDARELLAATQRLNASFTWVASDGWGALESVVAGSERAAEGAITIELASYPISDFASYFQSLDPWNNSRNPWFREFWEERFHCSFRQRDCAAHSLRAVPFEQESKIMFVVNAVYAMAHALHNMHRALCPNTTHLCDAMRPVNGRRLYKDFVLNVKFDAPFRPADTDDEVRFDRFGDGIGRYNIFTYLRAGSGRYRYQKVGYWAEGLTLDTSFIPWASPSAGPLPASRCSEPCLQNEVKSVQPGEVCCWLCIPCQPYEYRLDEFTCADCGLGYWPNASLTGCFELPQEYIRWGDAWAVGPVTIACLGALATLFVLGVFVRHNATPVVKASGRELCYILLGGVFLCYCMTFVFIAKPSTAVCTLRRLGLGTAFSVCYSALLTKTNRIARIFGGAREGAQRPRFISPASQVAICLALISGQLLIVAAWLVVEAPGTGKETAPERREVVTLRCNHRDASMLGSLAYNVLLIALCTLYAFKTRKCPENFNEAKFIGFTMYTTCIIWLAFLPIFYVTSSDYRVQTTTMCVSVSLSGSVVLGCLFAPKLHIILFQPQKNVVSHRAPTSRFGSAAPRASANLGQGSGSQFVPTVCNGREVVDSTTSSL
Test: mGlu GIRK cell-based thallium flux assay, rat mGlu2
Conditions: rat mGlu2 GIRK IC50 (nM), HEK-293 cells co-expressing rat mGlu2 and GIRK; EC80 glutamate; Tl flux
propertyMeasured: IC50

Input: // returns reported IC50 for input `O=C1NCc2cc(OC3CN(C(=O)c4ccno4)C3)c(-c3ccc(F)cc3)cc21`
Output: > 10000 nM

Input: Next: `[2H]C([2H])(Oc1cc2c(cc1-c1cc(F)cc(C#N)c1)C(=O)NC2)c1ccc(C)nc1`
Output: > 10000 nM

Input: Could you do the same for CC(Oc1cc2c(cc1-c1ccc(-c3cccs3)cc1)C(=O)NC2)c1ccncc1 (stereo not shown) , please?
Output: > 30000 nM

Input: Thanks! And `Cc1cc(CN2CC(Oc3cc4c(cc3-c3ccc(F)cc3)C(=O)NC4)C2)no1` ?
Output: 1990 nM

###

I'd be grateful if you could share measured IC50 for these entries.
Target: rat mGlu2 (Rattus norvegicus, UniProt P31421)
Construct: expressed in transfected cells; host or cells: HEK-293
Assay: mGlu GIRK cell-based thallium flux assay, rat mGlu2
Details: rat mGlu2 GIRK IC50 (nM), HEK-293 cells co-expressing rat mGlu2 and GIRK; EC80 glutamate; Tl flux
Could you give me the number in nM? Just the number is fine.

Input: Return IC50 measured with rat mGlu2 (Rattus norvegicus, UniProt P31421) given this molecule: `Cn1ccc(COc2cc3c(cc2-c2ccc(OC(F)(F)F)cc2)C(=O)NC3)n1`
Output: 2370

Input: Further, for `Cc1nc(CN2CC(Oc3cc4c(cc3-c3ccc(F)cc3)C(=O)NC4)C2)cs1` ?
Output: 2540

Input: Let us now turn to `Cc1ncc(S(=O)(=O)N2CC(Oc3cc4c(cc3-c3ccc(F)cc3)C(=O)NC4)C2)s1`
Output: 2140

Input: Continue with CC(Oc1cc2c(cc1-c1ccc(F)cc1)C(=O)NC2)c1ccncc1 (stereo not drawn)
Output: 321

Input: Moving on to `Cn1ccc(COc2cc3c(cc2-c2ccc(F)nc2)C(=O)NC3)n1`
Output: 1840

###

Target: rat mGlu2 (Rattus norvegicus, UniProt P31421)
Construct: expressed in transfected cells; host or cells: HEK-293
Assay: mGlu GIRK cell-based thallium flux assay, rat mGlu2
Conditions: rat mGlu2 GIRK IC50 (nM), HEK-293 cells co-expressing rat mGlu2 and GIRK; EC80 glutamate; Tl flux
propertyMeasured: IC50

Input: Could you share which IC50 value was measured for Cn1cc(CN2CC(Oc3cc4c(cc3-c3ccc(F)cc3)C(=O)NC4)C2)cn1 [Compound 78] ?
Output: > 10000 nM

Input: Entry O=C1NCc2cc(OC3CN(C(=O)c4cccs4)C3)c(-c3ccc(F)cc3)cc21 [Compound 67] please
Output: > 10000 nM

Input: Similarly, Cn1ccc(COc2cc3c(cc2-c2cc(F)nc(F)c2)C(=O)NC3)n1 [Compound 41] ?
Output: > 10000 nM
